assayed_system: T1, HLA-A*0201 molecule expressed on human T2 cells (human)
T1 construct: also called HLA-A2
assay_summary: T2 cells (HLA-A*0201), peptide at 1 µM, anti-HLA-A2 flow cytometry
Each item that follows carries a reported mean relative fluorescence intensity (HIV peptide = 100).

FMPGLLFGA [TNFRSF13C-B33]    1.3 % of HIV pol 589-597 at 100 µM
SLVGILHLQ [CD19-H1]    0 % of HIV pol 589-597 at 100 µM
YLAYLIFEL [CD19-B6]    5.4 % of HIV pol 589-597 at 100 µM
FLAFVPLQL (also called CD37-B1i) [CD37-B1]    35 % of HIV pol 589-597 at 100 µM
GMAFVPLLL (also called CD37-B11i) [CD37-B11]    1.6 % of HIV pol 589-597 at 100 µM
PLPGLLFGA [TNFRSF13C-H3]    0 % of HIV pol 589-597 at 100 µM
LMFGAPALV [TNFRSF13C-B1]    7 % of HIV pol 589-597 at 100 µM
YVFEHPELL [CD22-B11]    60.5 % of HIV pol 589-597 at 100 µM
YLFLGILSL [MS4A1-B5]    0.2 % of HIV pol 589-597 at 100 µM
LMIPAGIYA [MS4A1-H3]    0.9 % of HIV pol 589-597 at 100 µM

Now take the following binder into account.
Endpoint output: mean relative fluorescence intensity (HIV peptide = 100) of GLAFVPLQI [CD37-H1] . Value?
0 % of HIV pol 589-597 at 100 µM
